Consider the following log10 of MIC values measured on Salmonella dublin.
Measurement type: log10 of MIC (log10 of the value in µg/mL)

1) CC(=O)OCC1=C(C(=O)O)N2C(=O)[C@@H](Nc3nc(Cc4ccccc4)c[nH]3)[C@H]2SC1 [Example 1]	-0.30
2) O=C(O)C1=C(CSc2c[nH]nn2)CS[C@@H]2[C@H](Nc3nc(CCNC(=O)C(F)(F)F)c[nH]3)C(=O)N12 [Example 10]	-1.80
3) Cn1nnnc1SCC1=C(C(=O)O)N2C(=O)[C@@H](Nc3nc(CCC#N)c[nH]3)[C@H]2SC1 [Example 16]	-2.10
4) CNC(=O)OCCCc1c[nH]c(N[C@@H]2C(=O)N3C(C(=O)O)=C(COC(C)=O)CS[C@H]23)n1 [Example 9.2]	-1.22
5) C=CCc1c[nH]c(N[C@@H]2C(=O)N3C(C(=O)O)=C(CSc4nnnn4C)CS[C@H]23)n1 [Example 6.1]	-1.80
6) Cc1nnc(SCC2=C(C(=O)O)N3C(=O)[C@@H](Nc4nc(CCNC(=O)C(F)(F)F)c[nH]4)[C@H]3SC2)s1 [Example 4.2]	-0.60
7) O=C(O)C1=C(CSc2c[nH]nn2)CS[C@@H]2[C@H](Nc3nc(CCCNC(=S)NCC(F)(F)F)c[nH]3)C(=O)N12 [Example 80]	-0.30
